Hello, the source for this data is paper PMC4631386, in case you need it.

test_system: T1, His-tagged human calmodulin (recombinant) (human, UniProt P0DP24 1-149)
T1 construct: human calmodulin, CALM2 cDNA (OriGene SC125707) in a modified pET16b with a TEV site between the N-terminal polyhistidine tag and the protein; also called free calmodulin; recombinant calmodulin; not shown: polyhistidine, N-terminal, kept
method_summary: ELISA; competition: calmodulin immobilised, GST-DED1 held at its KD concentration, R4 peptide titrated; anti-GST AlexaFluor 488 detection
condition_parameters: both partners purified
metric_name: IC50 (µM)
Output spec: scalar in µM, unitless text.

Ask: Endpoint output: IC50 of VRRFDLLKRILK (cFLIP DED1 region 4, V62-K73, twelve amino acids; also called region 4; source: synthetic peptide (Tufts University Core Facility)) [DED1 R4 peptide] . Value?
Result: 63
